# Test system: Corynebacterium pseudodiphtheriticum
# Measurement Description: Antimicrobial activity against Corynebacterium pseudodiphtheriticum isolates by CLSI M45-A protocol based microdilution method
# Format: functional
Measurement Label: MIC90 (µg/mL)
Record the value in µg/mL, omitting the unit from your answer.

Sample answers from the record:
Chemical Smiles	MIC90, µg/mL
C[C@H]1c2cccc(O)c2C(=O)C2=C(O)[C@]3(O)C(=O)C(C(N)=O)=C(O)[C@@H](N(C)C)[C@@H]3[C@@H](O)[C@@H]21.O	0.125
CN[C@H](CC(C)C)C(=O)N[C@H]1C(=O)N[C@@H](CC(N)=O)C(=O)N[C@H]2C(=O)N[C@H]3C(=O)N[C@H](C(=O)N[C@H](C(=O)O)c4cc(O)cc(O)c4-c4cc3ccc4O)[C@H](O)c3ccc(c(Cl)c3)Oc3cc2cc(c3O[C@@H]2O[C@H](CO)[C@@H](O)[C@H](O)[C@H]2O[C@H]2C[C@](C)(N)[C@H](O)[C@H](C)O2)Oc2ccc(cc2Cl)[C@H]1O	0.25
CN(C)c1ccc(O)c2c1C[C@H]1C[C@H]3[C@H](N(C)C)C(O)=C(C(N)=O)C(=O)[C@@]3(O)C(O)=C1C2=O	0.06
CN(C)c1cc(NC(=O)CNC(C)(C)C)c(O)c2c1C[C@H]1C[C@H]3[C@H](N(C)C)C(O)=C(C(N)=O)C(=O)[C@@]3(O)C(O)=C1C2=O	0.03
CN(C)[C@@H]1C(O)=C(C(N)=O)C(=O)[C@@]2(O)C(O)=C3C(=O)c4c(O)cccc4[C@@](C)(O)[C@H]3C[C@@H]12	0.25

Dear colleague, I am looking for the recorded MIC90 of the following compound: CO/N=C(\C(=O)N[C@@H]1C(=O)N2C(C(=O)O)=C(COC(N)=O)CS[C@H]12)c1ccco1
0.125

GET /values?readout=MIC90&item= C[C@H]1COc2c(N3CCN(C)CC3)c(F)cc3c(=O)c(C(=O)O)cn1c23.C[C@H]1COc2c(N3CCN(C)CC3)c(F)cc3c(=O)c(C(=O)O)cn1c23.O
4

* * *

Listing of entries alongside the reported MIC50.
# Tested on: Corynebacterium pseudodiphtheriticum
# Measurement Description: Antimicrobial activity against Corynebacterium pseudodiphtheriticum isolates by CLSI M45-A protocol based microdilution method
# Type: functional

Below, 7 molecules whose answers are already recorded.
Chemical Smiles	MIC50
CN(C)c1ccc(O)c2c1C[C@H]1C[C@H]3[C@H](N(C)C)C(O)=C(C(N)=O)C(=O)[C@@]3(O)C(O)=C1C2=O	0.06 µg/mL
CN(C)c1cc(NC(=O)CNC(C)(C)C)c(O)c2c1C[C@H]1C[C@H]3[C@H](N(C)C)C(O)=C(C(N)=O)C(=O)[C@@]3(O)C(O)=C1C2=O	≤ 0.015 µg/mL
CN(C)[C@@H]1C(O)=C(C(N)=O)C(=O)[C@@]2(O)C(O)=C3C(=O)c4c(O)cccc4[C@@](C)(O)[C@H]3C[C@@H]12	0.125 µg/mL
C[C@H]1COc2c(N3CCN(C)CC3)c(F)cc3c(=O)c(C(=O)O)cn1c23.C[C@H]1COc2c(N3CCN(C)CC3)c(F)cc3c(=O)c(C(=O)O)cn1c23.O	0.25 µg/mL
C[C@H]1c2cccc(O)c2C(=O)C2=C(O)[C@]3(O)C(=O)C(C(N)=O)=C(O)[C@@H](N(C)C)[C@@H]3[C@@H](O)[C@@H]21.O	0.125 µg/mL
CN[C@H](CC(C)C)C(=O)N[C@H]1C(=O)N[C@@H](CC(N)=O)C(=O)N[C@H]2C(=O)N[C@H]3C(=O)N[C@H](C(=O)N[C@H](C(=O)O)c4cc(O)cc(O)c4-c4cc3ccc4O)[C@H](O)c3ccc(c(Cl)c3)Oc3cc2cc(c3O[C@@H]2O[C@H](CO)[C@@H](O)[C@H](O)[C@H]2O[C@H]2C[C@](C)(N)[C@H](O)[C@H](C)O2)Oc2ccc(cc2Cl)[C@H]1O	0.25 µg/mL
CO/N=C(\C(=O)N[C@@H]1C(=O)N2C(C(=O)O)=C(COC(N)=O)CS[C@H]12)c1ccco1	0.06 µg/mL

Which MIC50 is listed for CCC[C@@H]1C[C@@H](C(=O)N[C@@H]([C@H]2O[C@H](SC)[C@H](O)[C@@H](O)[C@H]2O)[C@H](C)Cl)N(C)C1 ?
> 16 µg/mL

* * *

# System: Corynebacterium jeikeium
# Measurement Description: Antimicrobial activity against Corynebacterium jeikeium isolates by CLSI M45-A protocol based microdilution method
# Type: functional
Measurement Label: MIC50 (µg/mL)
Write the answer as a number in µg/mL, unit excluded.

Given the entry CN[C@H](CC(C)C)C(=O)N[C@H]1C(=O)N[C@@H](CC(N)=O)C(=O)N[C@H]2C(=O)N[C@H]3C(=O)N[C@H](C(=O)N[C@H](C(=O)O)c4cc(O)cc(O)c4-c4cc3ccc4O)[C@H](O)c3ccc(c(Cl)c3)Oc3cc2cc(c3O[C@@H]2O[C@H](CO)[C@@H](O)[C@H](O)[C@H]2O[C@H]2C[C@](C)(N)[C@H](O)[C@H](C)O2)Oc2ccc(cc2Cl)[C@H]1O , report its measured MIC50.
0.06

* * *

# System: Corynebacterium jeikeium
# Measurement Description: Antimicrobial activity against Corynebacterium jeikeium isolates by CLSI M45-A protocol based microdilution method
# Assay type: functional
List of MIC values.

Some compounds with known MIC results, for comparison:
Chemical Smiles	MIC
CN(C)[C@@H]1C(O)=C(C(N)=O)C(=O)[C@@]2(O)C(O)=C3C(=O)c4c(O)cccc4[C@@](C)(O)[C@H]3C[C@@H]12	0.06 µg/mL
CN(C)c1cc(NC(=O)CNC(C)(C)C)c(O)c2c1C[C@H]1C[C@H]3[C@H](N(C)C)C(O)=C(C(N)=O)C(=O)[C@@]3(O)C(O)=C1C2=O	≤ 0.015 µg/mL

Entry under review: CCC[C@@H]1C[C@@H](C(=O)N[C@@H]([C@H]2O[C@H](SC)[C@H](O)[C@@H](O)[C@H]2O)[C@H](C)Cl)N(C)C1 . Reported MIC?
> 16 µg/mL

Item under review: CN(C)c1ccc(O)c2c1C[C@H]1C[C@H]3[C@H](N(C)C)C(O)=C(C(N)=O)C(=O)[C@@]3(O)C(O)=C1C2=O . Reported MIC?
0.06 µg/mL

Report MIC for CN[C@H](CC(C)C)C(=O)N[C@H]1C(=O)N[C@@H](CC(N)=O)C(=O)N[C@H]2C(=O)N[C@H]3C(=O)N[C@H](C(=O)N[C@H](C(=O)O)c4cc(O)cc(O)c4-c4cc3ccc4O)[C@H](O)c3ccc(c(Cl)c3)Oc3cc2cc(c3O[C@@H]2O[C@H](CO)[C@@H](O)[C@H](O)[C@H]2O[C@H]2C[C@](C)(N)[C@H](O)[C@H](C)O2)Oc2ccc(cc2Cl)[C@H]1O please.
0.06 µg/mL

* * *

# Test system: Corynebacterium urealyticum
# Measurement Description: Antimicrobial activity against Corynebacterium urealyticum isolates by CLSI M45-A protocol based microdilution method
# Assay type: functional
# key: entry, value: MIC50
Give just the numeric value; µg/mL need not be written.

Solved entries:
Molecule	Data Value
C[C@H]1c2cccc(O)c2C(=O)C2=C(O)[C@]3(O)C(=O)C(C(N)=O)=C(O)[C@@H](N(C)C)[C@@H]3[C@@H](O)[C@@H]21.O [DOXYCYCLINE]	0.125
CN(C)c1ccc(O)c2c1C[C@H]1C[C@H]3[C@H](N(C)C)C(O)=C(C(N)=O)C(=O)[C@@]3(O)C(O)=C1C2=O [MINOCYCLINE]	0.06
CN(C)c1cc(NC(=O)CNC(C)(C)C)c(O)c2c1C[C@H]1C[C@H]3[C@H](N(C)C)C(O)=C(C(N)=O)C(=O)[C@@]3(O)C(O)=C1C2=O [TIGECYCLINE]	0.03

Reported MIC50, molecule CN(C)[C@@H]1C(O)=C(C(N)=O)C(=O)[C@@]2(O)C(O)=C3C(=O)c4c(O)cccc4[C@@](C)(O)[C@H]3C[C@@H]12 [TETRACYCLINE] : ____
0.25

Would you kindly share the measured MIC50 for CN[C@H](CC(C)C)C(=O)N[C@H]1C(=O)N[C@@H](CC(N)=O)C(=O)N[C@H]2C(=O)N[C@H]3C(=O)N[C@H](C(=O)N[C@H](C(=O)O)c4cc(O)cc(O)c4-c4cc3ccc4O)[C@H](O)c3ccc(c(Cl)c3)Oc3cc2cc(c3O[C@@H]2O[C@H](CO)[C@@H](O)[C@H](O)[C@H]2O[C@H]2C[C@](C)(N)[C@H](O)[C@H](C)O2)Oc2ccc(cc2Cl)[C@H]1O [VANCOMYCIN] ?
0.25

* * *

Below, each entry is listed alongside its reported MIC50.
# System: Corynebacterium jeikeium
# Measurement Description: Antimicrobial activity against Corynebacterium jeikeium isolates by CLSI M45-A protocol based microdilution method
# Type: functional
// return numeric value only (unit: µg/mL, not printed)

Please look up its MIC50: C[C@H]1COc2c(N3CCN(C)CC3)c(F)cc3c(=O)c(C(=O)O)cn1c23.C[C@H]1COc2c(N3CCN(C)CC3)c(F)cc3c(=O)c(C(=O)O)cn1c23.O
4

For the molecule shown here, C[C@H]1c2cccc(O)c2C(=O)C2=C(O)[C@]3(O)C(=O)C(C(N)=O)=C(O)[C@@H](N(C)C)[C@@H]3[C@@H](O)[C@@H]21.O , give the reported MIC50.
0.03

Data provenance is ChEMBL document CHEMBL1255301.
